# MEASURED_ON: Voltage-gated inwardly rectifying potassium channel KCNH2 (Homo sapiens)
# PROTOCOL_NOTES: Human Ether-a-go-go-Related Gene (hERG) channel small molecule antagonists: fluorescence cell-based qHTS assay (AID 1671200); also: nearly all actives have a fitted effect of over 50% in size
# MEASUREMENT_CONDITIONS: hERG-U2OS cells, FluxOR thallium flux fluorescence; series mostly up to 76.8 µM
Records with an inconclusive call do not appear. Activity calls are given as the source filed them. Calls follow the shape of the dose curve; as a rule, active = well fitted inhibition curve with a large enough effect in the repeat runs; inconclusive = weak or mixed curves; inactive = flat fitted curve, though single readings scatter.
Outcome (select one): t for active, f for inactive

[in] Answer briefly: the call reported for CCCCCCCC in this assay.
[out] f

[in] Could you kindly confirm the outcome this assay logged for CC1=Nc2ccccc2C1(C)C ?
[out] f

[in] In this assay, the call recorded for Cc1cc(-c2ccc(N=Nc3cc(S(=O)(=O)O)c4ccccc4c3N)c(C)c2)ccc1N=Nc1cc(S(=O)(=O)O)c2ccccc2c1N was what?
[out] t

[in] GET /call?item= Cc1cc(C(C#N)c2ccc(Cl)cc2)c(Cl)cc1NC(=O)c1cc(I)cc(I)c1O (centres undefined) returns the recorded outcome of this test.
[out] f

[in] Fill in: this test's call for OC/C=C/CO is ___
[out] f

[in] What call does the record list for Cc1cc(C(C)(C)C)c(O)c(C)c1Cn1c(=O)n(Cc2c(C)cc(C(C)(C)C)c(O)c2C)c(=O)n(Cc2c(C)cc(C(C)(C)C)c(O)c2C)c1=O ?
[out] f

[in] In this assay, the call recorded for O=C(O)c1ccc2cc(C(=O)O)ccc2c1 was what?
[out] f

[in] Any idea what this test logged for CNC(=O)c1ccccc1Sc1ccc2c(/C=C/c3ccccn3)n[nH]c2c1 ?
[out] f

[in] Hi, sorry to bother you, what did the test record for CCCCC/C=C\C/C=C\CCCCCCCC(=O)O ?
[out] f

[in] Could you check what this test reported for O=C(Nc1ccc2c(O)c(N=Nc3ccc(N=Nc4ccc(S(=O)(=O)O)cc4)cc3)c(S(=O)(=O)O)cc2c1)c1ccccc1 ?
[out] f

[in] Which outcome did this test record for the compound c1ccc(SSc2ccccc2)cc1 ?
[out] f

[in] Identify the outcome logged in this assay for the compound shown: O=c1[nH]c(=O)n([C@H]2C[C@H](O)[C@@H](CO)O2)cc1F
[out] f

[in] Could you check what this test reported for CCc1ccc(Br)cc1 ?
[out] f

[in] Could you kindly confirm the outcome this assay logged for COc1cccc(OC)c1C(=O)O ?
[out] f

[in] Could you kindly confirm the outcome this assay logged for S=c1nccc[nH]1 ?
[out] f

[in] What did this assay record as the result for O=C(O)c1cc(N=Nc2ccc([N+](=O)[O-])cc2)ccc1O ?
[out] f

[in] Hello, I am checking results. What call was entered for CCc1cccc(CC)c1NC(=O)CN(CC(=O)O)CC(=O)O ?
[out] f

[in] Entry CCC(=O)OC(=O)CC : call = ?
[out] f

[in] Hi team, can someone confirm the assay call for CCCCOC(=O)CC ?
[out] f

[in] // param item: CN(C)[C@@H](CCOc1cccc2ccccc12)c1ccccc1 ; yields the recorded call
[out] t

[in] Could you kindly confirm the outcome this assay logged for C1CCC(SSC2CCCCC2)CC1 ?
[out] f

[in] Any idea what this test logged for CNc1ccc([N+](=O)[O-])cc1 ?
[out] f

[in] # fetch the recorded call for CCCCOC(=O)CO here
[out] f

[in] Returns: the outcome recorded for CCN1C(=O)c2ccccc2C1Nc1ccc(OCCN2CCCCC2)cc1 (centres undefined) in this assay.
[out] f

[in] Identify the outcome logged in this assay for the compound shown: Cc1ccc(N/N=c2\c(=O)cc/c(=N\Nc3ccc(S(=O)(=O)O)cc3)c2=O)c(C)c1
[out] f

[in] For [Cu+] , what call appears in the results of this test?
[out] f

[in] # lookup: test call for O=C(Oc1ccccc1)Oc1ccccc1
[out] f

[in] # fetch the recorded call for Cl[Si](Cl)(c1ccccc1)c1ccccc1 here
[out] f

[in] Please let me know the test result on file for C=CCn1c(=O)n(CC=C)c(=O)n(CC=C)c1=O .
[out] f

[in] Recorded test call requested for CC(N=C(NC#N)Nc1ccncc1)C(C)(C)C (centres undefined)
[out] f

[in] Could you check what this test reported for Cc1ccc(C(C)C)cc2c(C)ccc1-2 ?
[out] f

[in] Hello, I am checking results. What call was entered for O=C(O)c1cc(-c2ccc(F)cc2F)ccc1O ?
[out] f

[in] Call for entry CC(C)(c1cc(Br)c(OCC(Br)CBr)c(Br)c1)c1cc(Br)c(OCC(Br)CBr)c(Br)c1 (centres undefined) :
[out] f

[in] Hello, I am checking results. What call was entered for O=S(=O)(O)c1ccc(N=Nc2c(O)ccc3ccccc23)cc1 ?
[out] f

[in] What was the test verdict on CC1(C)CCC[C@]2(C)[C@H]3CC(=O)O[C@]3(C)CC[C@@H]12 ?
[out] t

[in] Please indicate how the test categorized O=S(=O)(O)c1ccccc1/C=C/c1ccc(-c2ccc(/C=C/c3ccccc3S(=O)(=O)O)cc2)cc1 .
[out] f

[in] Dear colleague, could you share the recorded outcome for CCO[C@@H]1O[C@H](C(COCc2ccccc2)OCc2ccccc2)[C@H](OCc2ccccc2)[C@H]1O (some centres undefined) when you have a moment?
[out] f

[in] Kindly provide the recorded test outcome for the following compound: O=C(O)c1cc(=O)c2ccccc2o1
[out] f

[in] Answer briefly: the call reported for CCCCN(CCCC)CC(O)c1cc(Cl)cc2c1-c1ccc(Cl)cc1/C2=C/c1ccc(Cl)cc1 (centres undefined) in this assay.
[out] t

[in] In this assay, the call recorded for CC(C)=CCNc1ncnc2c1ncn2[C@@H]1O[C@H](CO)[C@@H](O)[C@H]1O was what?
[out] f

[in] Test call for this compound, please: C#C[C@]1(OC(C)=O)CC[C@H]2[C@@H]3CCC4=C/C(=N/O)CC[C@@H]4[C@H]3CC[C@@]21CC
[out] f

[in] Recorded test call requested for Cc1cccc2cccnc12
[out] f

[in] Record lookup: outcome of this test for CC[C@H](C)COC(=O)/C=C/c1ccc(N=Cc2ccc(OC)cc2)cc1 ?
[out] t

[in] Recorded test call requested for CC(CCc1ccccc1)NCC(O)c1ccc(O)c(C(N)=O)c1 (centres undefined)
[out] t

[in] Please state the recorded outcome for this compound: c1cnccn1
[out] f

[in] For this compound, state the assay outcome: CCN(CCN)c1cccc(C)c1
[out] t

[in] Dear colleague, could you share the recorded outcome for CC(=O)CC(=O)Nc1ccc(S(=O)(=O)O)cc1 when you have a moment?
[out] f

[in] Just curious, what result did O=C1CCc2cc(OCCCCc3nnnn3C3CCCCC3)ccc2N1 get here?
[out] f

[in] Call for entry Cc1cc(-n2nc3ccc(Cl)cc3n2)c(O)c(C(C)(C)C)c1 :
[out] f

----------
Assignment: determine reported activity change, negative = cytotoxicity for the given molecules.
# PROTOCOL_NOTES: qHTS RealTime-Glo MT Cell Viability Assay in HEK293 cells - 24 hour (AID 1224886); also: top concentration of the series differs between compounds; % is scaled to controls: 0 for no effect and ±100 for the full control effect; nearly all actives have a fitted effect of over 50% in size
# MEASUREMENT_CONDITIONS: RealTime-Glo luminescence; series mostly up to 76.8 µM
Inconclusive results are not listed. The source made the active and inactive calls. Calls come from the whole dose curve; as a rule, active = well fitted cell-killing curve with a large enough effect in the repeat runs; inconclusive = weak or mixed curves, or effect the other way; inactive = flat fitted curve, though single readings scatter.

Record summary for NC[C@H]1O[C@H](O[C@H]2[C@H](O[C@@H]3O[C@H](CO)[C@@H](O)[C@H]3O)C(O)[C@H](N)C[C@@H]2N)[C@H](N)[C@@H](O)[C@@H]1O (some centres undefined) : reported activity change, negative = cytotoxicity = 4.78% [at 6.97 µM] (inactive)

Per the records, this molecule ( O=C(O)CN(CCN(CC(=O)O)CC(=O)O)CC(=O)O ) has activity change, negative = cytotoxicity equal to 5.68% [at 2.72 µM] (inactive)

Sure, the documented activity change, negative = cytotoxicity for COc1cc2nc(N3CCN(C(=O)c4ccco4)CC3)nc(N)c2cc1OC is -15.4% [at 15.8 µM] (inactive)

// recorded activity change, negative = cytotoxicity for CC(C)(C)CC(C)(C)c1ccc(Nc2ccc(C(C)(C)CC(C)(C)C)cc2)cc1 : 3.98% [at 6.97 µM] (inactive)

----------
Please provide measured Potency for the entries that follow.
# PROTOCOL_NOTES: qHTS RealTime-Glo MT Cell Viability Assay in HepG2 cells - 16 hour (AID 1224885); also: potency is read from the fitted curve at half-maximal effect; nearly all actives have a fitted effect of over 50% in size
# MEASUREMENT_CONDITIONS: RealTime-Glo luminescence; series mostly up to 76.8 µM
Results filed as inconclusive are left out. Calls of active or inactive are those of the source. The call rests on the fitted dose curve; in most records, active means well fitted cell-killing curve with a large enough effect in the repeat runs; inconclusive means weak or mixed curves; inactive means flat fitted curve, though single readings scatter.

molecule C#CC1(O)CC[C@H]2[C@@H]3CCC4=CCCC[C@@H]4[C@H]3CC[C@@]21C (some centres undefined) , Potency observed: 23.9 µM (active)

The measured Potency associated with CCN(CC)C(=O)c1cc(S(=O)(=O)Cc2ccccc2)c(N2CCC(c3ccccc3)CC2)cc1N(CC)CCN(C)C reads 19.3 µM (active)

For C=CC(=O)Nc1cc2c(Nc3ccc(F)c(Cl)c3)ncnc2cc1OCCCN1CCOCC1 the molecule record lists Potency as 8.49 µM (active)

What the record says about CC(C)(C)c1ccc(C(O)CCCN2CCC(C(O)(c3ccccc3)c3ccccc3)CC2)cc1 (centres undefined) : Potency is 7.56 µM (active)

meta.source: PubChem BioAssay (Tox21)
